Values from ChEMBL document CHEMBL1133177

# target_or_system: 5-hydroxytryptamine receptor 2A (Rattus norvegicus, UniProt P14842)
# Sequence (P14842 whole entry): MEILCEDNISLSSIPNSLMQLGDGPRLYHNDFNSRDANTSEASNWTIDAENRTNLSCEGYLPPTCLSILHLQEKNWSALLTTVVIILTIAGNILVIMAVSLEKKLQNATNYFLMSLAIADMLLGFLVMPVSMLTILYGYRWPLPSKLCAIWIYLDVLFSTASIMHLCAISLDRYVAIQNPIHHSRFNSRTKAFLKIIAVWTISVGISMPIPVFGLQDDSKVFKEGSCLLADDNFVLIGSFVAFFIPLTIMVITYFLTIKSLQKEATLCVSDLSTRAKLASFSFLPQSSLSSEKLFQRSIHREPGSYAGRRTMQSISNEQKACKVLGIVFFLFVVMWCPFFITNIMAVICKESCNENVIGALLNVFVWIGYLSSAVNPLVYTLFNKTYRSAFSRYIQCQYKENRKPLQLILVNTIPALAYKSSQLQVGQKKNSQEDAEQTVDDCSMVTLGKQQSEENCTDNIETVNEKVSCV
# test_details: Affinity at 5-hydroxytryptamine 2A receptor of the rat brain cortex was assessed on the basis of their ability to displace [3H]ketanserin
property: Ki (µM)
Express the result in µM but write the number alone.

Challenge: Query (compound): CN1CCN(c2cc(-c3cccs3)nc(Cl)n2)CC1 ; field requested: Ki
Response given: 2.69

Challenge: Try CN1CCN(c2nc(Cl)cc(-c3cccs3)n2)CC1 next.
Response given: 0.347

Challenge: Try CN1CCN(c2cc(-c3ccco3)nc(Cl)n2)CC1 next.
Response given: 6.03

Challenge: Try Cc1ccc(-c2cc(N3CCN(C)CC3)nc(Cl)n2)cc1 next.
Response given: 4.27
